Ref: the nanobody polyreactivity screen of Harvey et al. (2022)

- test description: yeast display, Sf9 membrane polyspecificity reagent, FACS + sequencing; frameworks hold sequencing errors
value kind: polyreactivity (PSR sort gate)

Some entries whose results are on file:
Input line: What value of polyreactivity (PSR sort gate) has been recorded for this entry: "QVQLVESGGGLVQAGGSLRLSCAASGSIFGEYTMGWYRPAPGKERELVAAIRSGGDTYYADSVKGRFTISRDNAKNTVYLQMNSLKPEDTAVYYCNAYWVRHYIMDYWGQGTQVTVSS"
Output line: low polyreactivity

Input line: Moving on to the next sequence: "QVQLVESGGGLVQAGGSLRLSCAASGSIFLGNAMGWYRQAPGKERELVAGITNGDNTNYADSVKGRFTISRDNAKNTDYLQMNSLKPEDTAVYYCATGPYLIYDYWGQGTQVTVSS"
Output line: low polyreactivity

Input line: Check "QVQLVESGGGLVQAGGSLRLSCAASGSIFGRYTMGWYRQAPGKERELVAAISWGGGSTYYADSVKGRFTISRDNAKNTVYLQMNSLKREDTAVYYCDADTYWAIDPIYDYWGQGTQVTVSS" too.
Output line: low polyreactivity

Input line: Would you mind doing "QVQLVESGRGLVQAGGSLRLSCAASGSTFRYYAMGWYRQAPGKERELVASITRGASTNYADSVKGRFTISRDNAKNTVYLQMNSLKPEDTAVYYCAADNYCHTFGGTDLRDDYWGQGTQVTVSS" as well?
Output line: low polyreactivity

Input line: Also "QVQLVESGGGLVQAGGSLRLSCAASGFIFIRNAMGWYRQAPGKQRELVATIRYSGGNTYYADSVKGRFTISRDNAKNTVYLQMNSLNPEDTAVYYCAAGSGYWGRSPTRCGQGGYWGQGTQVTVSS" , if possible.
Output line: high polyreactivity

Consider the record given below.
Input line: Please report the recorded polyreactivity (PSR sort gate) for "QVQLVESGGGLVQAGGSLRLSCAASGSTFKWYAMGWYRPAPGKEREFVAAITKTGGRTNYADSVKGRFTISRDNAKNTVYLQMNSLKPEDTAVYYCAAGYYAGIYYYWGQGTQVTVSS" .
Output line: high polyreactivity

###

- test description: yeast display, Sf9 membrane polyspecificity reagent, FACS + sequencing; frameworks hold sequencing errors
value kind: polyreactivity (PSR sort gate)

Here are 4 sequences together with their reported answers.
Input line: I'd like to know its polyreactivity (PSR sort gate). The sequence in question is "QVQLVESGGGLVQAGGSLRLSCAASGRTFLWNAMGWYRQAPGKERELVAAISISGGNTNYADSVKGRFTISRDNAKNTVYLQINSLKPEDTAVYYCNADPRAEPGDWSYEMDYWGQGTQVTVSS"
Output line: low polyreactivity

Input line: Can you handle "QVQLVESGGGLVQAGGSLRLSCAASGNTIDRYDMGWYRQPPGKEREFVAAITASAGSTYADSVKGRFTISRDNAKNTVYLQMNSLKPEDSAVYYCNAGNSSTGVDRYDYWGQGTQVTVSS" next?
Output line: low polyreactivity

Input line: Would you kindly repeat that for "QVQLVESGGGLVQAGGRLRLSCAASGNIFYAYALGWYRQAPGKERELVAAISWSGDSTYYADSVKGRFTISRDNAKNTVYLQMNSLKPEDTAVYYCAARKVTYHYQWMDYWGQGTQVTVSS" ?
Output line: low polyreactivity

Input line: Next entry: "QVQLVESGGGLVLAGGSLRLSCAASGFIFARYAMGWYRQAPGKERELVAAISRGGSTYYADSVKGRFTISRDNAKNTVYFQMHSLKPEDTAVYYCNKRQLPNARGSSTYEYWGQGTQVTVSS"
Output line: high polyreactivity

Further cases:
Input line: Fill blank: measured polyreactivity (PSR sort gate) of the sequence "QVQLVESGGGLVQAGGSLRLSCAASGSTFQTYVMGWYRQAPGKERELVAAISSGGSTNYADSVKGRFTISRDNAKNTVYLQMNSLKPEDTAVYYCAKRWPYFRRGKDGYWGQGTQVTVSS" is ____.
Output line: low polyreactivity

Input line: Another sequence to look at: "QVQLVESGGGLVQAGGSLRLSCAASGNIFFSNAMGWYRQAPGKERELVASISQSGGSTYYADSVKGRFTISRDNAKNTVYLQMNSLKPEDTAVFYCAATQVRRGPAWGRDYWGQGTQVTVSS"
Output line: low polyreactivity

Input line: Quick one: "QVQLVESGGCLVQAGGSLRLSCDASGGIFVSYAMGWYRQAPRKDRELVAAITSGGGTSYADSVKGRFTISRDNAKNTVYLQMNSLKPEDTAVYYCNADGYLAERFVIRLDEYRDYDYWGQGTQVTVSS"
Output line: low polyreactivity

Input line: Next sequence up: "QVQLVESGGGLVQAGGSLRLSCAASGRTFYSYAMGWYRPAPGKERELVAAINSGGDTYYADSVKGRFTISRDNAKNTVYLQMNSLKPEDTAVYYCAADYYWEMDSWGQGTQVTVSS"
Output line: low polyreactivity

Input line: Item: "QVQLVESGGGLVQAGGSLRLSCAASGSIFWSYAMGWYRQAPGKEREFVAAIRGRGGNTYADSVKGRFTISRDNAKNTVYLQMNSLKPEDTAVYYCAAPLLRDLRSPYSYNYWGQGTQVTVSS"
Output line: low polyreactivity

Input line: # iterate: "QVQLVESGGGLVQAGCSLRLRCAASGRIYPYYAMGWYRQAPGKERELVAAIRGGGTSTRYADSVKGRFTISRDNAKKTVDLQMNSLKPSDTADYYCAAVWYSGSTRYSKYLEYYYWGQGTQVTVSS"
Output line: high polyreactivity

Input line: Let us now turn to "QVQLVESGGCLVQAGGSLRLSCAASGRTFYIYAMGWYRQAPGKERELVAAINFSDGSTSYADSVKGRFTISRDNAKHTVYLQMNSLKPEDTAVYYWGQGTKVTVSS"
Output line: low polyreactivity

Input line: Follow-up item: "QVQLVESGGGLVQAGGSLRLSCAASGGTFHYNAMGWSRQAPGKERELVAAITESGGRTYYADSVKGRFTISRDNAKNTVYLQMNSLKPEDTAVYYCNADQDYDAAYRSDYWGQGTQVTVSS"
Output line: low polyreactivity

Input line: Field entry: "QVQLVESGGCLVQAGGSLRLSCAASGSTFRYNAMGWYRPAPGKERELVAAITSSGGRTYYADSVKGRFTISRDNAKNTVYLQMNSLKPEDTAVYYCARRYLSVRGDSWGQGTQVTVSS"
Output line: high polyreactivity

Input line: Subsequent entry: "QVQHVESGGCLVQAGGSLRLSCAASGSIFSYYDMGWYRHAPGKERELVAAIRGSGGITYADSVKGRFTISRDNAKNTVYLQMNSLKPEETAVYYCAADQYYRSDYYYWGQGTQVTVSS"
Output line: low polyreactivity

Input line: Then what about the sequence "QVQLVESGGGLVQAGGSLRLSCAASGYTFYTNAMGWYIQAPGKERELVASIRSRGRSTYYADSVKGRFTISRDNAKNTVYLQMNSLKPEDTAVFYCAALPNIPAVYAYDYWGQGTQVTVSS" ?
Output line: low polyreactivity

Input line: Subsequent entry: "QVQLVESGGGLVQAGGSLRLSCAASGSTFYSYAMGWYRQAPGKERELVAAISSSSGSTYYADSVKGRFTISRDNAKNTVYLQMNSLKPEDTAVYYCNRGRRYSHKYDYWGQGTQVTVSS"
Output line: high polyreactivity
